Molecular target: human ICMT (Homo sapiens (Human))
Sequence (O60725 whole entry): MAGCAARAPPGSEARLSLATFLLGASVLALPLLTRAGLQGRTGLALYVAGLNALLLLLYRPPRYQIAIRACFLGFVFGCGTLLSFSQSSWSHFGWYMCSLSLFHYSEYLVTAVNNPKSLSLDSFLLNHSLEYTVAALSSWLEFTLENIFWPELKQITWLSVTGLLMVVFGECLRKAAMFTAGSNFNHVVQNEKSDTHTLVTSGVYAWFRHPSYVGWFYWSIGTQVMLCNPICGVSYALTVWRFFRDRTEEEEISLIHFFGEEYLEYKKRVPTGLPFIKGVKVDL
Test: ICMT biochemical assay (Methyltransferase-Glo)
Conditions: unit (nM)
Listed below: IC50 values for each entry.
Just the number please, in nM, no unit attached.

COc1cc(C#N)ccc1O[C@H](C)COc1cccc(-n2ccnc2C)c1 :: 0.7
COc1cc(C#N)ccc1O[C@@H](C)COc1cccc(-c2ccnn2C)c1 :: 0.81

I'd like to know its IC50. The compound in question is Cc1cc(C#N)ccc1OC(C)COc1cccc(-n2ccnc2C2CC2)c1 (stereo not shown)
0.88

Quick check: IC50 of N#Cc1ccc(OCCOc2ccnc(-n3ccnc3C3CC3)c2)c(F)c1 ?
0.39
